# tgt: Human KLKB1 (Homo sapiens (Human), UniProt P03952)
# Sequence (P03952 391-638 limits assumed): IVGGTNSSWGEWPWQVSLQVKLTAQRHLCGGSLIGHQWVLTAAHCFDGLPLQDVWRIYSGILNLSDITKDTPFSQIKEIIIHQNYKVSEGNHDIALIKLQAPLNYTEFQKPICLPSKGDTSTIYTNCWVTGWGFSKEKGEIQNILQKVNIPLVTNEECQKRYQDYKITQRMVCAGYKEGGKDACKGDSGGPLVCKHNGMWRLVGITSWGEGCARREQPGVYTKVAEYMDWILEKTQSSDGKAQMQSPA
# Sequence (P03952 20-390 partner limits assumed): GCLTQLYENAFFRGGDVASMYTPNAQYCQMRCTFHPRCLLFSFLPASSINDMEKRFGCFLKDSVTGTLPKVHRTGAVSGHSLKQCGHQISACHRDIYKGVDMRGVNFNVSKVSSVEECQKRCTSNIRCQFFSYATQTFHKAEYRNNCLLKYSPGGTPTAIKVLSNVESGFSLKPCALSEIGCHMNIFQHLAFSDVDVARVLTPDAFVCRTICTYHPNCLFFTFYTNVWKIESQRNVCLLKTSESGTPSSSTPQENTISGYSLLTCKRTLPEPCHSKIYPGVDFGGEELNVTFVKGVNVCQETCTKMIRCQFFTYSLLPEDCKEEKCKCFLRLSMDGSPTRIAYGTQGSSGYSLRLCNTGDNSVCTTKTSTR
# assay-protocol: KLKB1 kallikrein activity inhibition assay (chromogenic substrate S-2302)
# Type: biochemical
# protocol-conditions: Table B
result-type: IC50

Incoming: Give the reported IC50 for this compound. COCCn1cccc(-c2cc(NCc3ccc(Cl)s3)n(C(=O)c3ccco3)n2)c1=O
Outgoing: 0.1 to 1 µM

Incoming: Specify reported IC50 for the compound shown: O=C(c1ccc(N2CCOCC2)cc1)n1nc(-c2cccn(Cc3cccnc3)c2=O)cc1NCc1ccc(Cl)s1
Outgoing: 0.1 to 1 µM

Incoming: Report IC50, nothing else, for this compound: O=C(c1ccoc1)n1nc(-c2ncccc2F)cc1NCc1ccc(Cl)s1
Outgoing: > 100 µM

Incoming: Assign IC50 to the following record: COc1ccccc1C(=O)n1nc(C2CCCCC2O)cc1NCc1ccc(Cl)s1 (stereo not shown)
Outgoing: 1 to 10 µM

Incoming: Report IC50 for CC(C)(CO)C(=O)n1nc(C2CCNCC2)c(F)c1NCc1ccc(Cl)s1
Outgoing: 1 to 10 µM

Incoming: Read the entry O=C(c1ccsc1)n1nc(-c2cccn(Cc3ncccn3)c2=O)cc1NCc1ccc(Cl)s1 and write its reported IC50.
Outgoing: 0.1 to 1 µM

Incoming: Give recorded IC50. Cn1cccc(-c2cc(NCc3ccc(Cl)s3)n(C(=O)C3(COC(=O)C4(CO)CC4)CC3)n2)c1=O
Outgoing: 1 to 10 µM

Incoming: Give IC50 for the following compound: CC(C)(C)OC(=O)N1CCC(c2cc(NCc3ccc(Cl)s3)n(C(=O)C(C)(C)C)n2)CC1
Outgoing: > 100 µM

Incoming: Answer with reported IC50 of COCCn1cccc(-c2cc(NCc3ccc(Cl)s3)n(C(=O)c3ccccc3Cl)n2)c1=O
Outgoing: 0.1 to 1 µM

Incoming: Supply measured IC50 of COCC(C)(C)C(=O)n1nc(-c2cccn(Cc3ccncc3)c2=O)cc1NCc1ccc(Cl)s1 in your reply.
Outgoing: 10 to 100 µM

Incoming: Given the compound COc1ccc(C(=O)n2nc(-c3cccn(Cc4ccccn4)c3=O)cc2NCc2ccc(Cl)s2)c(OC)c1 , write its reported IC50.
Outgoing: 1 to 10 µM

Incoming: Give the reported value of IC50 for this record: O=C(c1ccoc1)n1nc(-c2cccn(Cc3ccsc3)c2=O)cc1NCc1ccc(Cl)s1
Outgoing: 10 to 100 µM

Incoming: Report measured IC50; entry is O=C(c1ccoc1)n1nc(-c2cccs2)cc1NCc1ccc(Cl)s1
Outgoing: > 100 µM

Incoming: Item O=C(c1ccsc1)n1nc(-c2cccnn2)cc1NCc1ccc(Cl)s1 : provide IC50
Outgoing: 0.1 to 1 µM

Incoming: Using the record for O=C(c1ccc(N2CCOCC2)cc1)n1nc(-c2cccn(Cc3ccoc3)c2=O)cc1NCc1ccc(Cl)s1 , state its measured IC50.
Outgoing: 10 to 100 µM

Incoming: Identify measured IC50 corresponding to O=C(c1cccc2c1OCCO2)n1nc(-c2cccn(Cc3cccs3)c2=O)cc1NCc1ccc(Cl)s1
Outgoing: > 100 µM

Incoming: Determine its reported IC50: CCC(=O)n1nc(-c2ccccc2)cc1NCc1ccc(F)cc1
Outgoing: > 100 µM

Incoming: Fill in IC50 for record CC(C)(CO)C(=O)n1nc(C2CCOCC2)c(F)c1NCc1ccc(Cl)s1
Outgoing: 10 to 100 µM

Incoming: Note IC50 for the compound shown: O=C(c1cccc2c1OCCO2)n1nc(-c2cccn(Cc3ncccn3)c2=O)cc1NCc1ccc(Cl)s1
Outgoing: 1 to 10 µM

Incoming: Give recorded IC50. COCC(C)(C)C(=O)n1nc(-c2cccn(Cc3cccs3)c2=O)cc1NCc1ccc(Cl)s1
Outgoing: > 100 µM

Incoming: Input COCCn1cccc(-c2cc(NCc3ccc(Cl)s3)n(C(=O)c3ccsc3)n2)c1=O , output reported IC50.
Outgoing: 0.1 to 1 µM

Incoming: Supply IC50 value. Item: CC(C)(C)C(=O)n1nc(-c2ccccn2)cc1NCc1ccco1
Outgoing: > 100 µM

Incoming: Answer with reported IC50 of CC(C)(C)C(=O)n1nc(-c2ccco2)cc1NCc1ccc(Cl)s1
Outgoing: > 100 µM

Incoming: Dear colleague, please send me the reported IC50 for COc1ccc(C(=O)n2nc(-c3cccn(Cc4cccnc4)c3=O)cc2NCc2ccc(Cl)s2)c(OC)c1 when you can.
Outgoing: 1 to 10 µM

Incoming: Complete the entry with IC50 for O=c1c(-c2cc(NCc3ccc(Cl)s3)n[nH]2)cccn1CCc1ccccn1
Outgoing: 10 to 100 µM

Incoming: Tell me measured IC50 for O=C(c1ccoc1)n1nc(-c2ccccn2)cc1NCc1ccc(Cl)s1 please.
Outgoing: 10 to 100 µM

Incoming: Supply recorded IC50 for COc1ccccc1C(=O)n1nc(-c2cccn(CC(=O)N3CCOCC3)c2=O)cc1NCc1ccc(Cl)s1 here.
Outgoing: 1 to 10 µM

Incoming: Return IC50 for the following compound: COc1ccccc1C(=O)n1nc(C2CCOCC2)cc1NCc1ccc(Cl)s1
Outgoing: > 100 µM
